- Test system: RARa homodimer (NR concentration 270 nM)
- method-description: PBM binding z-score (relative to random genomic background probes); higher = stronger binding; sequences stand for … in GC…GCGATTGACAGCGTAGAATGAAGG
Reported PBM binding z-score maps to class as: bin A = under -0.1, bin B = from -0.1 up to 0.4, bin C = 0.4 and over

Use the examples below as a reference point.
{"sequence-record": "ATACCAAGGTGATCGTTAGGTCGTTGATACTAAC", "cat": "bin B"}
{"sequence-record": "CCTGCTAGATCATGGTCAGCTAATCTACAGTATG", "cat": "bin A"}
{"sequence-record": "CCAGACAGGTGAGAGGTAACTCAGTCTGGTACGC", "cat": "bin B"}
{"sequence-record": "AATACAGGGTCATCGTTGGCCAGAGTACGCACAG", "cat": "bin C"}

Prompt line: Could you place AGAATGAGGTTATTAAGATCTGGGAATTGCGGTC in its proper category? Many thanks.
Response line: bin A

Prompt line: Another: CCTTACGGGTCACTCCAGGTTTTAGCATCGGAGT
Response line: bin C

Prompt line: Another: AGTCAAAGTTCACTTGGTAACGTAAGATTCAGCT
Response line: bin C

Prompt line: Another: GCATATAGGTAAAACAAGGTGAAAGTCCGATTGT
Response line: bin B

Prompt line: Another: GGAGCGAGGGCAAGTTGATAGCAGAGTTTGATGG
Response line: bin A

Prompt line: Another: CCTATTAGTTGACCATAAGGGCAGCCGAAGCTCG
Response line: bin C

Prompt line: Another: TTACCAAGGTGAGCTAAGGTCGTTGATCCAACTC
Response line: bin A

Prompt line: Another: GCTTCTAGGTCAACTGATGGTCAGCTAAAGCTCG
Response line: bin B

* * *

- Tested on: RARb:RXRa (NR concentration 270 nM, RXRa partner concentration 90 nM)
- method-description: PBM binding z-score (relative to random genomic background probes); higher = stronger binding; sequences stand for … in GC…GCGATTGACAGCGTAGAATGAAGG
Reported PBM binding z-score maps to class as: Low = under 1, Medium = from 1 up to 3, High = 3 and over

{"sequence-record": "CGTCGAAGGTCAAAGGTCAGTGAAGAGATGACGG", "cat": "High"}

Prompt line: Could you place CCTCTGAGGACAGAAGGTCAGAGCTGTCCGCTTT in its proper category? Many thanks.
Response line: High

Prompt line: Another: TCTAGCAGGCCAGAGGGTCACTAAAGAGGTACGG
Response line: Medium

Prompt line: Another: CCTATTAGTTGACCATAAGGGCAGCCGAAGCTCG
Response line: Medium

Prompt line: Another: AATACAGGGTCACTAGGCCATAGTAGGTACGAAT
Response line: High

Prompt line: Another: CGAACTAGGTCAAGGACAGTCAATCTCCGCACGC
Response line: High

* * *

I'd be grateful if you could share measured PBM binding z-score for these entries.
- Test system: PPARg homodimer (NR concentration 180 nM)
- method-description: PBM binding z-score (relative to random genomic background probes); higher = stronger binding; sequences stand for … in GC…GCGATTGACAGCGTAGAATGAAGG
One number for each entry.

{"sequence-record": "AATACAGGGTCATCGTAGGCTAGAGTACGCACAG", "observed-value": 1.99}
{"sequence-record": "CCGACTGGGGCATAAGGTTACGATAAGCCAGCCC", "observed-value": 1.02}
{"sequence-record": "CGTCCAAGGTCAGAGAGGTCAATGAATGCCGAGT", "observed-value": 5.37}
{"sequence-record": "CCGACTGGGGCAGAAAGGTTACCATGCCATCCGG", "observed-value": 0.386}
{"sequence-record": "GGAACGAGGGCAAGTTCATAGCAGAGTTTGATGG", "observed-value": 0.648}

# batch: return PBM binding z-score for each of the 5 sequences below
1. GCTGCTAGGTCAGGTTTGTCAGCTAACGGGTACG
2. ACAGCCAGGTGATGAAGGTAACTCAGGCTATCAT
3. ATATGTAGGTTACATCAGGGTCATTCAGGCTATG
4. AGAATGAGGTTATTAAGATCAGTGAATTGCGGTC
5. GCGTCTGGGGCAAAGCAGGTTACCATAAGGTTGG

Response line:
[0.518, -0.425, 2.46, 1.22, 0.154]

* * *

- Test system: FXR:RXRa (NR concentration 270 nM, RXRa partner concentration 90 nM)
- method-description: PBM binding z-score (relative to random genomic background probes); higher = stronger binding; sequences stand for … in GC…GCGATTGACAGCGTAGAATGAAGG
Reported PBM binding z-score maps to class as: 1: < 0.3; 2: ≥ 0.3 and < 2; 3: ≥ 2

Use the examples below as a reference point.
{"sequence-record": "CCTAGCAGGCCAATCTGGGACACTCAAGGCTTGA", "cat": 1}
{"sequence-record": "CCTCCTGGGCCAAAGGTCATTGATTCCAATGCTC", "cat": 3}
{"sequence-record": "ATCTCTAGGTAACAAGTGCAGTGAAAGAGAGGAC", "cat": 1}
{"sequence-record": "GCTAGCAGGCCTTTTGGGTCACTCAATGACGGGC", "cat": 1}

Prompt line: Could you place ATCTCTAGATAACAAGTTCAGTGAAAGAGAGGAC in its proper category? Many thanks.
Response line: 2

Prompt line: Another: ATATGTAGGTTATCGGGTCCTTCAGTTTGCGCAT
Response line: 2

Prompt line: Another: CGTCCAAGGTCATCAGGTCAGTGAAAGCGACGTG
Response line: 3

Prompt line: Another: AGAATGAGGTTTTTAAGATCAGGGAATTGCGGTC
Response line: 1

Prompt line: Another: ATATGTAGGTTAGCTGGGGTAATTCAGACTAGGC
Response line: 2

Prompt line: Another: GATACAGGGTCGAGGCCAGAGTACGCGTATTGAT
Response line: 2

Prompt line: Another: TCGAGTGGGTTAGGGGCATTCAGAATGGCGTCGA
Response line: 2

Prompt line: Another: ATCGAAAGGTCGGGGTGAGTATAGAGAAAGGGAA
Response line: 3

Prompt line: Another: GCTTTTAGTTGAAAGGGCAACCGAATGATTCTCG
Response line: 1

* * *

- System: RARa:RXR (NR concentration 270 nM, RXRa partner concentration 90 nM)
- method-description: PBM binding z-score (relative to random genomic background probes); higher = stronger binding; sequences stand for … in GC…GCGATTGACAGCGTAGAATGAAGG
readout-type: PBM binding z-score
Give bare numbers.

Consider the reported PBM binding z-score for these sequences:
{"sequence-record": "GGAAGGAGGGCAAGTTGATAGCAGAGTTTGATGG", "PBM binding z-score": 0.685}
{"sequence-record": "TAGCCTAGGTCATTGGTCCAGTATAGTACGCATC", "PBM binding z-score": 2.39}

# batch: return PBM binding z-score for each of the 3 sequences below
1. GCGACTGGGGCATCAGGAGGTTACCATAACTTAA
2. CCGACTGTGGCAAAGGTTACCATACTCAGTACGA
3. CGTTCAAGGTCAATGCTAGGTCAGTGAAAGCATT

Response line:
[1.16, 2.56, 6.62]

* * *

- Tested on: LXRb:RXRa (NR concentration 270 nM, RXRa partner concentration 90 nM)
- method-description: PBM binding z-score (relative to random genomic background probes); higher = stronger binding; sequences stand for … in GC…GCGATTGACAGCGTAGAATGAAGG
I'd be grateful if you could share measured PBM binding z-score for these entries.
Numbers only.

Consider the reported PBM binding z-score for these sequences:
{"sequence-record": "CGTCCAAGGTCAGCAGGCCAGTGAAAGCGACGTG", "readout-type": "PBM binding z-score", "observed-value": 2.31}
{"sequence-record": "CCGAGTAGGTTGTGGGGCATTCAGGCAACGGTGA", "readout-type": "PBM binding z-score", "observed-value": 0.178}
{"sequence-record": "GGAACGAGGGCAAAGTTGATACCATCTGTCGACG", "readout-type": "PBM binding z-score", "observed-value": 1.17}
{"sequence-record": "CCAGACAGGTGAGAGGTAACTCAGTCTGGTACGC", "readout-type": "PBM binding z-score", "observed-value": 0.237}
{"sequence-record": "TCTAGTTGGTCACGGAGGTCAAACACGACGGGTA", "readout-type": "PBM binding z-score", "observed-value": 4.25}

# batch: return PBM binding z-score for each of the 4 sequences below
1. GCGACTGTGGCAAAGCAGGTTACCATAAGGTTGG
2. TAGCCTAGGTCGGATCGGGCCAGTATACGCTATA
3. ACAGACAGGTGATTAAGGTAACTCAGGCTATCAT
4. TCGAGTAGGTTAGGGGCATTAAGAATGGCGTCGA

Response line:
-0.511
-0.741
-0.0714
0.739

# batch: return PBM binding z-score for each of the 7 sequences below
1. CCAACTAGGTCAAGGTCAAAGTCGGTTTGTGCCA
2. TCTTGTAGATCAAGCAGGTTAAGAAGGCCTGAGT
3. TCTTGTAGATCAAGAAGGTTAAGAAAGCCTGAGT
4. TCTGCTAGGTCACTTGGTCAGCTAACGAGCTGCC
5. TCTTGTAGATCAAAGGTTGAGAAAGCCGAAGCCT
6. ATTTCTAGGTAAAAGTTCAGTGAATCCCGAGGAT
7. CGAACTAGGTCATTGATAGGACAGTGAATAGTAA

Response line:
4.73
0.226
0.833
1.38
0.541
1.49
1.82

# batch: return PBM binding z-score for each of the 8 sequences below
1. CCGACTGGGGCAAAGGTAACCATACTCAGTACGA
2. CCTATTAGTTGACCATAAGGGCAACGGAAGCTCG
3. TCATTTAGGTAAAAGGTGAAAGTCGGTGTGGTAA
4. CCGACTGGGGCACAAGGTTACCATAAGCCAGCCC
5. ACTCGCAGGACAAAGGTCAGAGCTACGCCAGTGA
6. TCGAGTAGGTTAGGGGCATTGAGAATGGCGTCGA
7. TCATATAGGTAAGACAGGTGAAAGTCGGCATCTA
8. CGTCAAAGTTCAACTAAAGTAACGTAAAGCACGC

Response line:
1. 0.446
2. 0.234
3. 1.95
4. 0.74
5. 3.23
6. 0.843
7. 0.604
8. 4.14
